# credit: ChEMBL document CHEMBL5303304

Tested on: HEK-293T
method.notes: Incucyte cell viability with HEK293T; note: unitless GR value; below 1 slowed growth and below 0 cell loss
Type: toxicity, cell-based
test.settings: human, 12 h, 10 µM, compound concentration 10 uM, replicate number 1
Rule: Growth Rate below 0.6 gives t. Equal to or above 0.6 gives f.

Example entries and their recorded answers appear below.
Report whether reported Growth Rate is lower than 0.6 (strictly) for `CN(C)C(=O)Cn1cc(-c2ccc(-c3nnc4ccccn34)cc2)cn1`
f

How about `Cc1nc2ccc(Oc3ccc(F)cc3)cc2c(=O)n1C[C@H]1CCCN(C(C)C)C1.Cl` ?
t

How about `Cc1cc(-c2nncc3c(C(C)(C)C)c(OCc4ncnn4C)nn23)no1` ?
t

***
Report whether reported Growth Rate is lower than 0.6 (strictly) for `Cc1[nH]nc(C(F)(F)F)c1Cc1sc2c(c1C(=O)N1C[C@](C)(O)CO1)c(=O)n(C)c(=O)n2C(C)C`
t

How about CCC(=O)O[C@@H](OP(=O)(CCCCc1ccccc1)CC(=O)N1C[C@H](C2CCCCC2)C[C@H]1C(=O)[O-])C(C)C.[Na+] (stereo partly drawn) ?
f

How about `O=C(Nc1ccccc1Cl)c1cnc2ccc(C3CCNCC3)cn12.O=C(O)C(=O)O` ?
t

How about `CCOCCn1cc(C(=O)Nc2ccc(-n3nc(-c4cccnc4)cc3C(F)(F)F)cn2)ccc1=O` ?
t

How about `N[C@@H](CC(=O)O)Cn1nnc(-c2ccc(Oc3ncc(Cl)cc3F)cc2)n1` ?
f

* * *

Entries annotated with measured Growth Rate
System: HEK-293T
method.notes: Incucyte cell viability with HEK293T; note: unitless GR value; below 1 slowed growth and below 0 cell loss
Type: toxicity, cell-based
test.settings: human, 18 h, 10 µM, compound concentration 10 uM, replicate number 2
The answer should be written as a number, with no unit following it.

Give the reported Growth Rate for `CC(=O)NCC(=O)N1[C@@H]2CC[C@H]1c1ccc(Nc3ncc(C(F)(F)F)c(NC4CCC4)n3)cc12` (system: HEK-293T).
-0.55

How about CC(=O)Oc1ccc2c(c1)[C@@]1(C)CCC[C@](C)(C(=O)OC(=O)[C@@]3(C)CCC[C@]4(C)c5cc(OC(C)=O)ccc5CC[C@@H]34)[C@@H]1CC2 [ACETYL PODOCARPIC ACID ANHYDRIDE] ?
0.46

How about `COc1ncc(-c2cc(-c3ncc(CN4C[C@@H](C)O[C@@H](C)C4)o3)c3cn[nH]c3c2)cc1NS(C)(=O)=O` ?
-0.2

* * *

Test system: U2OS
method.notes: Incucyte cell viability with U2OS; note: unitless GR value; below 1 slowed growth and below 0 cell loss
Type: toxicity, cell-based
test.settings: human, 18 h, 10 µM, compound concentration 10 uM, replicate number 2
outcome.measure: Growth Rate

# count of solved cases: 2
Using the record for `Cc1cc(S(=O)(=O)N2CC(C)(C)c3cc(-c4ccc(C(F)(F)F)cc4)ccc32)ccc1OCC(=O)O` , report its Growth Rate.
0.8

How about COc1cc(C)c(S(=O)(=O)N(C)CCC(=O)N[C@H]2CC[C@@H](N3CCC4CN(C)CC4C3)CC2)c(C)c1.Cl.Cl (stereo not given in full) ?
0.99

***
Using the record for `COc1ccc(CC[C@@H](OC(=O)[C@H]2CCCCN2C(=O)[C@@H](c2cc(OC)c(OC)c(OC)c2)C2CCCCC2)c2cccc(OCCN3CCOCC3)c2)cc1OC` , report its Growth Rate.
0.99

How about OCC1OC(n2cnc3cc(Cl)c(Cl)cc32)C(O)C1O (stereo not given) ?
0.94

How about `Cc1cc(Nc2ncc(Cl)c(Nc3ccccc3S(=O)(=O)C(C)C)n2)c(OC(C)C)cc1C1CCNCC1` ?
-0.68

How about `Cc1ccc(NC(=O)c2ccc3cnccc3c2)cc1C(=O)Nc1cnc(Nc2cccc(NC3CCN(C(=O)/C=C/CN(C)C)CC3)c2)nc1` ?
0.49
